The origin of these recorded values is patent EP2902382A1.

Notes on MIC obtained with Enterococcus faecalis.

- MOLECULE: "ONCc1cc(C(F)(F)F)cc(C(F)(F)F)c1"
  RESULT: "500 to 1000 µM"
- MOLECULE: "COc1ccc(CNO)c(C)c1"
  RESULT: "250 to 500 µM"
- MOLECULE: "ONCc1ccc(F)cc1 [Example 3, N-(4-fluorobenzyl)-hydroxylamine]"
  RESULT: "500 to 1000 µM"
- MOLECULE: "COc1ccc(CNO)c(OC)c1 [Example 4, N-(2,4-dimethoxybenzyl)-hydroxylamine]"
  RESULT: "500 to 1000 µM"

Take each entry in turn and give its MIC.
1. ONCC1CCCCC1 [Example 2, N-cyclohexylmethyl-hydroxylamine]
2. ONCCc1ccccc1 [Example 1, N-phenethyl-hydroxylamine]

500 to 1000 µM
1000 to 2000 µM
